- ASSAY OVERVIEW: Plasma stability assay, rat plasma
- Assay type: in vitro ADME
- CONDITION PARAMETERS: 37° C., 10 μM, 1440 min
ENDPOINT: % remaining at time point in minutes, 1440 min (%)
API: value field is a number in %; no unit string.

# input compound: `C=C1CC[C@@]2(O)C3Cc4ccc(OC(=O)CCCCCCC/C=C\CCCCCCCC)c5c4[C@@]2(CCN3CC2CC2)[C@H]1O5` ; wanted: its % remaining at time point in minutes, 1440 min
19.1

I have this compound here, `CCCCCCCCCCCCCCC(=O)Oc1ccc2c3c1O[C@H]1C(=O)CC[C@@]4(O)C(C2)N(CC2CC2)CC[C@]314` , and I need its recorded % remaining at time point in minutes, 1440 min.
1.8

Which % remaining at time point in minutes, 1440 min value belongs to `CCCCCCCCCCCCOC(=O)Oc1ccc2c3c1O[C@H]1C(=O)CC[C@@]4(O)C(C2)N(CC2CC2)CC[C@]314` ?
0

What does the data say about its % remaining at time point in minutes, 1440 min? Entry: CCCCCCCCCCCC(=O)OCN1C(=O)CCc2ccc(OCCCCN3CCN(c4cccc(Cl)c4Cl)CC3)cc21 [Aripiprazole lauroxil, reference compound]
46
